- System: SNB-75 CNS
- assay-notes: NCI tumour cell line growth inhibition, 48 h
Classification field: condition met = TGI at or over 7 µM; condition not met = TGI under 7 µM.

| compound | answer-label |
| --- | --- |
| N=c1c2c(ncn1N)Oc1c(c(-c3ccccc3)nn1-c1ccccc1)C2c1ccc(Cl)cc1 (stereo not drawn) | condition not met |
| COc1cc(-c2c[nH]c3ccccc23)nc(-c2c[nH]c3ccccc23)n1 | condition met |
| O=c1oc2ccc(Cl)cc2c(=O)n1-c1ccc(Cl)cc1F | condition not met |
| CCC[CH2][Sn]1([CH2]CCC)[O]C(c2ccccn2)S(=O)(=O)[O]1 (stereo not drawn) | condition met |
| COC(=O)/C=C\c1ccc2c(c1)CC1(C2)Cc2ccc(/C=C/C(=O)OC)cc2C1 (stereo not drawn) | condition met |
| CC(=O)C1(c2ccccc2)CCN(Cn2sc3nc(C)cc(C)c3c2=O)CC1 | condition met |
| CCCCCCCCCCCCCCCCC1=CC(=O)C=C(OC)C1=O | condition met |
| C[C@]12CC[C@@H]3c4ccc(OC(=O)c5ccccc5)cc4CC[C@H]3[C@@H]1CCC2OC(=O)c1cccc2c(=O)c3ccccc3[nH]c12 (stereo partly drawn) | condition met |
